Hello, the source for this data is ChEMBL document CHEMBL5042510, in case you need it.

target: MAP/microtubule affinity-regulating kinase 3 (Homo sapiens, UniProt P27448)
Sequence (P27448 whole entry): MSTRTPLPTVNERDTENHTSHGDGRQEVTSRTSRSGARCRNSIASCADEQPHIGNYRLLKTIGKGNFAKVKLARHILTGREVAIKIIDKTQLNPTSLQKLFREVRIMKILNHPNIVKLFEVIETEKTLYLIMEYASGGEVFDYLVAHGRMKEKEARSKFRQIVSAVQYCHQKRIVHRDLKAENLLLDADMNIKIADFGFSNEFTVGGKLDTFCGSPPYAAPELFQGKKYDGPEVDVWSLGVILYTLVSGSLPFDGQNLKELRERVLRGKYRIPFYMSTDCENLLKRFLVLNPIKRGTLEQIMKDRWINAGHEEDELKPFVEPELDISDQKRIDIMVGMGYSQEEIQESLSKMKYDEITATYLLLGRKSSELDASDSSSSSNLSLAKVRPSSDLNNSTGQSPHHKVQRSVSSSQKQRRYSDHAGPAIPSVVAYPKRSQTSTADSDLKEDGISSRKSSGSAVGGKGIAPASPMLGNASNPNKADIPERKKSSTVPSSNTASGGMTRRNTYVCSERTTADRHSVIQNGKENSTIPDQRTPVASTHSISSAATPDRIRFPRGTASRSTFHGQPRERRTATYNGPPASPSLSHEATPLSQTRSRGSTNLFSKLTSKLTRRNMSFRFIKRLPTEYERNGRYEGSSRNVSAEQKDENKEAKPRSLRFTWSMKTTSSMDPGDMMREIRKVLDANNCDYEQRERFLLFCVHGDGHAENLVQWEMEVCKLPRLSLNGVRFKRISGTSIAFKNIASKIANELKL
Parameter Measured: pIC50
The value called pIC50 is obtained by taking minus log10 of the concentration in mol/L.

The compound Cc1c(Nc2ncc3cc(Cl)c(C4CCN([C@@H]5COC[C@@H]5O)CC4)cc3n2)cnn1[C@@H]1CC1(F)F , tested on MAP/microtubule affinity-regulating kinase 3 (Homo sapiens, UniProt P27448), showed pIC50 of 5.24

* * *

assay: Total plasma clearance in Beagle dog at 1 mg/kg, iv by LC-MS/MS analysis; format: ADME, organism-based, Canis lupus familiaris
Parameter Measured: clearance (mL/min/kg)
The reply should be a number in mL/min/kg, with the unit left off.

Lab note: measured clearance of O[C@H]1COC[C@H]1N1CC[C@@H](c2cc3nc(Nc4cnn([C@@H]5CC5(F)F)c4Cl)ncc3cc2Cl)[C@H](F)C1 was 9
